# STUDY_SYSTEM: T1, human VEGF (hVEGF) (human, UniProt P15692 181-395)
# T1 construct: also called VEGF-A
# T1 sequence: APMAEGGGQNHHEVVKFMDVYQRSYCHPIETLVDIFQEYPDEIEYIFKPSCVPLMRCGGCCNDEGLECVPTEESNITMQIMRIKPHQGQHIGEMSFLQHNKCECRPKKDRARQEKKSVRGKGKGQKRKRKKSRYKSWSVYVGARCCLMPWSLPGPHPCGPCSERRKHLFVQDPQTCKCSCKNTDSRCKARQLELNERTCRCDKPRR
# ASSAY_EXPLANATION: SPR single-cycle;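 also: fab variants injected over hVEGF immobilized on a CM5 chip (Biacore T200), threefold dilution series from 0.02 to 50 nM, kinetics fitted with a 1:1 Langmuir model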
Task for the reader: assign each of the following binders its reported koff.
Give a bare numeral; the unit s⁻¹ is implied.

Looking up G6.31 LC-Y55E (Fab, V domains shown, Fab) VH: EVQLVESGGGLVQPGGSLRLSCAASGFTISDYWIHWVRQAPGKGLEWVAGITPAGGYTYYADSVKGRFTISADTSKNTAYLQMNSLRAEDTAVYYCARFVFFLPYAMDYWGQGTLVTVSS VL: DIQMTQSPSSLSASVGDRVTITCRASQDVSTAVAWYQQKPGKAPKLLIYSASFLESGVPSRFSGSGSGTDFTLTISSLQPEDFATYYCQQGYGNPFTFGQGTKVEIK , I found its koff recorded as 0.000531

Looking up G6.31 LC-G93E (Fab, V domains shown, Fab) VH: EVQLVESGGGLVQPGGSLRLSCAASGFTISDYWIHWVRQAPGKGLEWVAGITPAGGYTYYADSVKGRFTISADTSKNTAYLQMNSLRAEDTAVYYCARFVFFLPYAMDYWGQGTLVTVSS VL: DIQMTQSPSSLSASVGDRVTITCRASQDVSTAVAWYQQKPGKAPKLLIYSASFLYSGVPSRFSGSGSGTDFTLTISSLQPEDFATYYCQQGYENPFTFGQGTKVEIK , I found its koff recorded as 0.00149
